The following binders are listed with their measured EC50 values.
- System Tested: T1, cynomolgus CD47 (cynomolgus, UniProt A0A5F8AK49 19-323)
- T1 chain: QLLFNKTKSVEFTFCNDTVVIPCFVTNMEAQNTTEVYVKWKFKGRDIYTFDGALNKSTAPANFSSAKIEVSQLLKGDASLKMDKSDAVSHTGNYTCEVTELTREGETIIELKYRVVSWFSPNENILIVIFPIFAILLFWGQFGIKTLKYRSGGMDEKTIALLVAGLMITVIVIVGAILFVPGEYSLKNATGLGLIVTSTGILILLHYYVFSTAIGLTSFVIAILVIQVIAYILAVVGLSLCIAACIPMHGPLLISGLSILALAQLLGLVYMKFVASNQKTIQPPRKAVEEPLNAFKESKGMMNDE
- Assay Protocol: FACS binding, C6-cKT14 cells
Endpoint Label: EC50 (nM)

>>> reported_result("B1.28DD/KT14KK/28 (antibody) chain 1: EVKLVESGGGLVKPGGSLKLSCAASGFTFGLYTMSWVRQTPERRLEWVATISSGGSNTYYPDSVKGRFTISRDNAKNNLFLQMNSLRSEDTALYYCARYYRYDAWFAYWGQGTLVTVSS chain 2: QVQLVQSGAEVKKPGASVKVSCKASGYTFTNYNMHWVRQAPGQRLEWMGTIYPGNDDTSYNQKFKDRVTITADTSASTAYMELSSLRSEDTAVYYCARGGYRAMDYWGQGTLVTVSS chain 3: DVLLTQTPLSLPVSLGDQASISCRSSQNIVHSTGNTYLDWYLQKPGQSPKLLIYKVSNRFSGVPDRFSGSGSGTDFTLKISRVEAEDLGVYFCFQGSHIPRTFGGGTKLEIK")
83
>>> reported_result("15D3DD/KT14KK/VL6.CDR3mod (antibody) chain 1: EVKVVESGGVLVRPGGSLKLSCAASGFTFSRYTMSWVRQTPEKRLEWVATISSGGGNTYYPDSVKGRFTVSRDNAMSSLYLQMSSLRSEDTALYYCARYGAGDAWFAYWGQGTLVTVSS chain 2: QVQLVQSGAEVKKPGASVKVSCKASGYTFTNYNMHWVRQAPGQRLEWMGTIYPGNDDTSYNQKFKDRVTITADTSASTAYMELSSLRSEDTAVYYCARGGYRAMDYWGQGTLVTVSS chain 3: DVLMTQTPLSLPVSLGDQASISCRSSQSLVHSNGNTYLEWYLQKPGQSPKLLIYKVSNRFSGVPDRFSGSGSGTDFTLKISRVEAEDLGVYYCFQGSHFPRTFGGGTKLEIKRTVAAPSVFIF")
44
>>> reported_result("15D3DD/KT14KK/B1.27 (antibody) chain 1: EVKVVESGGVLVRPGGSLKLSCAASGFTFSRYTMSWVRQTPEKRLEWVATISSGGGNTYYPDSVKGRFTVSRDNAMSSLYLQMSSLRSEDTALYYCARYGAGDAWFAYWGQGTLVTVSS chain 2: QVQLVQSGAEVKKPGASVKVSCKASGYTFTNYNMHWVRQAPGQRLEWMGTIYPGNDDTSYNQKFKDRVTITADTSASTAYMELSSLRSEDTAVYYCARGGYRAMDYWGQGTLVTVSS chain 3: DVLLTQTPLSLPVSLGDQASISCRSSQNIVHSTGNTYLDWYLQKPGQSPKLLIYKVSNRFSGVPDRFSGSGSGTDFTLKISRVEAEDLGVYFCFQGSHIPRTFGGGTKLEIK")
36
>>> reported_result("15D3DD/KT14KK/225v1 (antibody) chain 1: EVKVVESGGVLVRPGGSLKLSCAASGFTFSRYTMSWVRQTPEKRLEWVATISSGGGNTYYPDSVKGRFTVSRDNAMSSLYLQMSSLRSEDTALYYCARYGAGDAWFAYWGQGTLVTVSS chain 2: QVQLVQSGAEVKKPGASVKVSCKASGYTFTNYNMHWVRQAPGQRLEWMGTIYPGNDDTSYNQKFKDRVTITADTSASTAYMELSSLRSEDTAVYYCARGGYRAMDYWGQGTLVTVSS chain 3: DVVMTQTPLSLPVSLGDQASISCRFSQSIVHSNGNTYLEWYLQKPGQSPKLLIYKVSNRFFGVPDRFSGSGSGTDFTLKISRVEAEDLGVYYCFQASHFPRTFGGGTKLEIK")
37
